Target: CYP1A2 (Homo sapiens, UniProt P05177)
Construct: from tissue; host or cells: human liver microsomes (pooled in the time-dependent assay)
Sequence (P05177 whole entry): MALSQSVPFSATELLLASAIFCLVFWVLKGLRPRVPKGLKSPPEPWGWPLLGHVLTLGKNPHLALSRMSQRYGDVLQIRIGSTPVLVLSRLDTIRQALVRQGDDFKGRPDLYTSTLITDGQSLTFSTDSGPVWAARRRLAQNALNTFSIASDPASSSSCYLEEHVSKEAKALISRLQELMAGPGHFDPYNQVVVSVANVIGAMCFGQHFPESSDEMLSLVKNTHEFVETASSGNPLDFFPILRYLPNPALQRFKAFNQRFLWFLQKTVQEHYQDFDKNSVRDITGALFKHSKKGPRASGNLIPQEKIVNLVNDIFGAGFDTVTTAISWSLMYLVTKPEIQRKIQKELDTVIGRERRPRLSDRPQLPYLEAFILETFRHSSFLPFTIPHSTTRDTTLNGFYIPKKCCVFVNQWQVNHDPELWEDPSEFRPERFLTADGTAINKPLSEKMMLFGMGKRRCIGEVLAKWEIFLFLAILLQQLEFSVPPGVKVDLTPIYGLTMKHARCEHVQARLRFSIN
Assay: time dependent inhibition of CYP450 in pooled human microsomes
Assay type: in vitro ADME
Settings: pre-incubation 30 min (NADPH); read-out: CYP1A2 IC50
readout-kind: IC50 (µM)
Enter your answer as a number in µM; do not include the unit.

Exercise: Give recorded IC50. `CO[C@H]1CC[C@H](NC(=O)c2nccc(-c3cncn3C)n2)CC1`
Solution: 11.8

---

Target: human CD38 (Homo sapiens, UniProt P28907)
Sequence (P28907 whole entry): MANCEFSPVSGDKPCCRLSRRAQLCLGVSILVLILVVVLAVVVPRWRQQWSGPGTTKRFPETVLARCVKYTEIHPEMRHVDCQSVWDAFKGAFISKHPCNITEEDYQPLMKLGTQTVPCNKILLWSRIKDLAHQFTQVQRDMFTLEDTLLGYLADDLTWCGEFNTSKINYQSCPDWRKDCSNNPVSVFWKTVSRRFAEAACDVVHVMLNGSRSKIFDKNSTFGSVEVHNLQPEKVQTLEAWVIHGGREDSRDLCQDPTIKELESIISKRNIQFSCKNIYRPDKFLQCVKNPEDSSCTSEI
Assay: human recombinant CD38 enzyme assay (hydrolysis of NAD+)
Conditions: human recombinant CD38, 0.4 nM enzyme, 62.5 μM NAD+; read-out: hCD38 BioChem IC50
Please respond with 1 when measured IC50 is strictly beneath 0.03 µM, and with 0 in all other cases.

For orientation, consider the following solved cases.
# molecule, label-class
data = [
    ("Cn1cncc1-c1nc(C(=O)NC2CC3(C2)CC(F)(F)C3)cc(C(F)(F)F)n1", 1),
    ("Cn1cncc1-c1ccnc(C(=O)N[C@H]2C[C@H](c3cccc(F)c3)C2)n1", 1),
    ("C[C@H]1CC[C@H](NC(=O)c2cc(C(F)(F)F)nc(-n3ccnc3)n2)CC1", 0),
    ("Cc1cc(NC(=O)c2cccc(-c3cncs3)n2)ccn1", 0),
    ("Cc1cnc(-c2cncn2C)nc1C(=O)Nc1ccc(C(F)(F)F)nc1", 1),
]

Exercise: Does the reported IC50 of the following molecule sit strictly below 0.03 µM? `O=C(N[C@H]1CC[C@H](C(F)F)CC1)c1cccc(-n2ccnc2)n1`
Solution: 0

Exercise: Does the reported IC50 of the following molecule sit strictly below 0.03 µM? `O=C(Nc1ccc(F)cc1F)c1cccc(-n2ccnc2)n1`
Solution: 0

---

Molecular target: human CD38 (Homo sapiens)
Assay: human recombinant CD38 enzyme assay (hydrolysis of NAD+)
Conditions: human recombinant CD38, 0.4 nM enzyme, 62.5 μM NAD+; read-out: hCD38 BioChem IC50
Please respond with criterion met when measured IC50 is strictly beneath 0.3 µM, and with criterion not met in all other cases.

# smiles-representation, label-class
measured = [
    ("O=C(Nc1ccc(C(F)(F)F)nc1)c1cc(C2CCOCC2)nc(-n2ccnc2)n1", "criterion met"),
    ("O=C(Nc1ccc(C(F)F)nc1)c1cc(N2CCCC2)cc(-c2cncs2)n1", "criterion not met"),
    ("Cn1cncc1-c1cc(C(C)(C)C)nc(C(=O)Nc2ccc(C(F)(F)F)nc2)n1", "criterion not met"),
    ("Cn1cncc1-c1nc(C(=O)Nc2ccc(C(F)(F)F)nc2)cc(C(C)(C)O)n1", "criterion met"),
    ("O=C(Nc1cccnc1)c1ccnc(-n2ccnc2)n1", "criterion met"),
    ("COc1cc(C(=O)Nc2ccc(C(F)F)nc2)nc(-c2cncs2)c1", "criterion not met"),
    ("CC(C)c1cc(C(=O)Nc2ccc(C(F)F)nc2)nc(-c2cncn2C)n1", "criterion met"),
    ("Cc1ccc(NC(=O)c2cccc(-n3ccnc3)n2)cn1", "criterion met"),
    ("COc1ccc([C@H]2C[C@H](NC(=O)c3nccc(-n4ccnc4)n3)C2)cc1", "criterion met"),
    ("CC(=O)N1CC2(CC(NC(=O)c3cccc(-n4ccnc4)n3)C2)C1", "criterion not met"),
]

Exercise: Does the reported IC50 of the following compound sit strictly below 0.3 µM? `O=C(Nc1cccnc1)c1nccc(-n2ccnc2)n1`
Solution: criterion met

Exercise: Does the reported IC50 of the following compound sit strictly below 0.3 µM? `COCCOc1cc(C(=O)Nc2ccc(C(F)F)nc2)nc(-n2ccnc2)c1`
Solution: criterion met

Exercise: Does the reported IC50 of the following compound sit strictly below 0.3 µM? `CO[C@H]1CC[C@H](NC(=O)c2nccc(-c3cncn3C)n2)CC1`
Solution: criterion met

Exercise: Does the reported IC50 of the following compound sit strictly below 0.3 µM? `Cc1ccc(-n2ccnc2)nc1C(=O)N[C@H]1CC[C@H](C(F)F)CC1`
Solution: criterion met

Exercise: Does the reported IC50 of the following compound sit strictly below 0.3 µM? `CO[C@H]1CC[C@H](NC(=O)c2cc(C)cc(-c3cncn3C)n2)CC1`
Solution: criterion met

Exercise: Does the reported IC50 of the following compound sit strictly below 0.3 µM? `CO[C@H]1CC[C@H](NC(=O)c2cc(C3CCOCC3)nc(-c3cncn3C)n2)CC1`
Solution: criterion met
